- Tested on: MCF7 complex spheroid growth, % test/control
- PROTOCOL SUMMARY: Anticancer human tumor MCF7 cell line growth inhibition [Asc];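 also: spheroids exposed to compounds for 7 days; 100% = DMSO vehicle control wells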
- EXPERIMENTAL SETUP: second compound 0.316 µM; first compound 0.01 µM; active compounds read low
The following molecules are shown together with reported viability, T/C values.
Give the value, in units of %, as a plain number.

• O=C(c1ccc(F)c(F)c1Nc1ccc(I)cc1F)N1CC(O)([C@@H]2CCCCN2)C1 + Cc1c(S(C)(=O)=O)c(-c2cc(F)cc(N3CCN(c4ccc(NS(=O)(=O)c5ccc(NC(CCN6CCC(C(=O)OCCCP(=O)(O)O)CC6)CSc6ccccc6)c(S(=O)(=O)C(F)(F)F)c5)cc4)CC3)c2)c(-c2ccc(Cl)cc2)n1C(C)C = 88.2

Qu. Reported viability, T/C for NC1CCC(NC2CC2c2ccccc2)CC1 (configuration not stated) + CNC(C)C(=O)NC1CN(S(=O)(=O)c2cccc(S(=O)(=O)N3CCC4CCC(C(=O)NC(c5ccccc5)c5ccccc5)N4C(=O)C(NC(=O)C(C)NC)C3)c2)CCC2CCC(C(=O)NC(c3ccccc3)c3ccccc3)N2C1=O : what is it?
Ans. 15.8

====

- System: MCF7 complex spheroid growth, % test/control
- PROTOCOL SUMMARY: Anticancer human tumor MCF7 cell line growth inhibition [Asc];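 also: spheroids exposed to compounds for 7 days; 100% = DMSO vehicle control wells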
- EXPERIMENTAL SETUP: second compound 0.0316 µM; first compound 3 µM; active compounds read low
Measured viability, T/C by item
Write down the numeric answer in % and omit the unit.

* CCN1C(C(=O)NC23CCC(C(=O)O)(CC2)CC3)C(c2cccc(Cl)c2F)C2(C(=O)Nc3cc(Cl)ccc32)C12CCCCC2 (centres undefined) + Cc1c(S(C)(=O)=O)c(-c2cc(F)cc(N3CCN(c4ccc(NS(=O)(=O)c5ccc(NC(CCN6CCC(C(=O)OCCCP(=O)(O)O)CC6)CSc6ccccc6)c(S(=O)(=O)C(F)(F)F)c5)cc4)CC3)c2)c(-c2ccc(Cl)cc2)n1C(C)C | 12.1
* Cc1nc(N2CCC3(CC2)COC(C)C3N)c(CO)nc1Sc1ccnc(N)c1Cl (centres undefined) + Cc1c(S(C)(=O)=O)c(-c2cc(F)cc(N3CCN(c4ccc(NS(=O)(=O)c5ccc(NC(CCN6CCC(C(=O)OCCCP(=O)(O)O)CC6)CSc6ccccc6)c(S(=O)(=O)C(F)(F)F)c5)cc4)CC3)c2)c(-c2ccc(Cl)cc2)n1C(C)C | 14.7
* Cc1nc(N2CCC3(CC2)COC(C)C3N)c(CO)nc1Sc1ccnc(N)c1Cl (centres undefined) + CNC(C)C(=O)NC1CN(S(=O)(=O)c2cccc(S(=O)(=O)N3CCC4CCC(C(=O)NC(c5ccccc5)c5ccccc5)N4C(=O)C(NC(=O)C(C)NC)C3)c2)CCC2CCC(C(=O)NC(c3ccccc3)c3ccccc3)N2C1=O | 9.37

Switching to the query record.
Qu. Requested read-out: viability, T/C. Entry: CCN1C(C(=O)NC23CCC(C(=O)O)(CC2)CC3)C(c2cccc(Cl)c2F)C2(C(=O)Nc3cc(Cl)ccc32)C12CCCCC2 (centres undefined) + CNC(C)C(=O)NC1CN(S(=O)(=O)c2cccc(S(=O)(=O)N3CCC4CCC(C(=O)NC(c5ccccc5)c5ccccc5)N4C(=O)C(NC(=O)C(C)NC)C3)c2)CCC2CCC(C(=O)NC(c3ccccc3)c3ccccc3)N2C1=O
Ans. 5.94

====

- Tested on: MCF7 complex spheroid growth, % test/control
- PROTOCOL SUMMARY: Anticancer human tumor MCF7 cell line growth inhibition [Asc];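 also: spheroids exposed to compounds for 7 days; 100% = DMSO vehicle control wells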
- EXPERIMENTAL SETUP: second compound 0.316 µM; first compound 0.01 µM; active compounds read low
Catalogue of viability, T/C readings, one per entry.
Numeric answer only, unit % assumed.

• CCN1CCN(Cc2ccc(Nc3ncc(F)c(-c4cc(F)c5nc(C)n(C(C)C)c5c4)n3)nc2)CC1 + Cc1c(S(C)(=O)=O)c(-c2cc(F)cc(N3CCN(c4ccc(NS(=O)(=O)c5ccc(NC(CCN6CCC(C(=O)OCCCP(=O)(O)O)CC6)CSc6ccccc6)c(S(=O)(=O)C(F)(F)F)c5)cc4)CC3)c2)c(-c2ccc(Cl)cc2)n1C(C)C = 94.2

Please look at the following molecule next.
Qu. Fill in the recorded viability, T/C for this molecule, with MCF7 complex spheroid growth, % test/control as test system: O=C(c1ccc(F)c(F)c1Nc1ccc(I)cc1F)N1CC(O)([C@@H]2CCCCN2)C1 + CNC(C)C(=O)NC1CN(S(=O)(=O)c2cccc(S(=O)(=O)N3CCC4CCC(C(=O)NC(c5ccccc5)c5ccccc5)N4C(=O)C(NC(=O)C(C)NC)C3)c2)CCC2CCC(C(=O)NC(c3ccccc3)c3ccccc3)N2C1=O
Ans. 14.3

====

- System: MCF7 complex spheroid growth, % test/control
- PROTOCOL SUMMARY: Anticancer human tumor MCF7 cell line growth inhibition [Asc]; active means viability on the fitted dose curve at most 10% of control; inactive means the rest;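 also: spheroids exposed to compounds for 7 days; 100% = DMSO vehicle control wells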
- EXPERIMENTAL SETUP: second compound 1 µM; first compound 10 µM
Tick one outcome: active, inactive

Examples from the recorded data:
- C=C(F)C(=O)N1CCN(c2nc(OCC3CCCN3C)nc3c2CCN(c2cccc4cccc(Cl)c24)C3)CC1CC#N (centres undefined) + CNC(C)C(=O)NC1CN(S(=O)(=O)c2cccc(S(=O)(=O)N3CCC4CCC(C(=O)NC(c5ccccc5)c5ccccc5)N4C(=O)C(NC(=O)C(C)NC)C3)c2)CCC2CCC(C(=O)NC(c3ccccc3)c3ccccc3)N2C1=O: active
- C#Cc1c(F)ccc2cc(O)cc(-c3ncc4c(N5CC6CCC(C5)N6)nc(OCC56CCCN5CC(F)C6)nc4c3F)c12 (centres undefined) + CNC(C)C(=O)NC1CN(S(=O)(=O)c2cccc(S(=O)(=O)N3CCC4CCC(C(=O)NC(c5ccccc5)c5ccccc5)N4C(=O)C(NC(=O)C(C)NC)C3)c2)CCC2CCC(C(=O)NC(c3ccccc3)c3ccccc3)N2C1=O: active
- C=CC(=O)N1CCN(c2nc(=O)n(-c3c(C)ccnc3C(C)C)c3nc(-c4c(O)cccc4F)c(F)cc23)C(C)C1 (centres undefined) + Cc1c(S(C)(=O)=O)c(-c2cc(F)cc(N3CCN(c4ccc(NS(=O)(=O)c5ccc(NC(CCN6CCC(C(=O)OCCCP(=O)(O)O)CC6)CSc6ccccc6)c(S(=O)(=O)C(F)(F)F)c5)cc4)CC3)c2)c(-c2ccc(Cl)cc2)n1C(C)C: inactive

Moving on to another compound below.
Qu. Identify the outcome logged in this assay for the compound shown: C#Cc1c(F)ccc2cc(O)cc(-c3ncc4c(N5CC6CCC(C5)N6)nc(OCC56CCCN5CC(F)C6)nc4c3F)c12 (centres undefined) + Cc1c(S(C)(=O)=O)c(-c2cc(F)cc(N3CCN(c4ccc(NS(=O)(=O)c5ccc(NC(CCN6CCC(C(=O)OCCCP(=O)(O)O)CC6)CSc6ccccc6)c(S(=O)(=O)C(F)(F)F)c5)cc4)CC3)c2)c(-c2ccc(Cl)cc2)n1C(C)C
Ans. inactive

====

- Tested on: MCF7 complex spheroid growth, % test/control
- PROTOCOL SUMMARY: Anticancer human tumor MCF7 cell line growth inhibition [Asc];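 also: spheroids exposed to compounds for 7 days; 100% = DMSO vehicle control wells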
- EXPERIMENTAL SETUP: second compound 0.316 µM; first compound 0.1 µM; active compounds read low
MEASURED METRIC: viability, T/C

- O=C(c1ccc(F)c(F)c1Nc1ccc(I)cc1F)N1CC(O)([C@@H]2CCCCN2)C1 + CNC(C)C(=O)NC1CN(S(=O)(=O)c2cccc(S(=O)(=O)N3CCC4CCC(C(=O)NC(c5ccccc5)c5ccccc5)N4C(=O)C(NC(=O)C(C)NC)C3)c2)CCC2CCC(C(=O)NC(c3ccccc3)c3ccccc3)N2C1=O: 12.5%
- CCN1CCN(Cc2ccc(Nc3ncc(F)c(-c4cc(F)c5nc(C)n(C(C)C)c5c4)n3)nc2)CC1 + Cc1c(S(C)(=O)=O)c(-c2cc(F)cc(N3CCN(c4ccc(NS(=O)(=O)c5ccc(NC(CCN6CCC(C(=O)OCCCP(=O)(O)O)CC6)CSc6ccccc6)c(S(=O)(=O)C(F)(F)F)c5)cc4)CC3)c2)c(-c2ccc(Cl)cc2)n1C(C)C: 95%

Let us examine a further case.
Qu. Please give the measured viability, T/C for this compound: NC1CCC(NC2CC2c2ccccc2)CC1 (stereo not drawn) + CNC(C)C(=O)NC1CN(S(=O)(=O)c2cccc(S(=O)(=O)N3CCC4CCC(C(=O)NC(c5ccccc5)c5ccccc5)N4C(=O)C(NC(=O)C(C)NC)C3)c2)CCC2CCC(C(=O)NC(c3ccccc3)c3ccccc3)N2C1=O
Ans. 14.2%

====

Recorded viability, T/C, one value per entry.
- System: MCF7 complex spheroid growth, % test/control
- PROTOCOL SUMMARY: Anticancer human tumor MCF7 cell line growth inhibition [Asc];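 also: spheroids exposed to compounds for 7 days; 100% = DMSO vehicle control wells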
- EXPERIMENTAL SETUP: second compound 3.16 µM; first compound 3.16 µM; active compounds read low
Number only, in %; omit the unit.

Below, 3 compounds whose answers are already recorded.
• O=C(c1cc(Cc2n[nH]c(=O)c3ccccc23)ccc1F)N1CCN(C(=O)C2CC2)CC1 + Cc1c(S(C)(=O)=O)c(-c2cc(F)cc(N3CCN(c4ccc(NS(=O)(=O)c5ccc(NC(CCN6CCC(C(=O)OCCCP(=O)(O)O)CC6)CSc6ccccc6)c(S(=O)(=O)C(F)(F)F)c5)cc4)CC3)c2)c(-c2ccc(Cl)cc2)n1C(C)C = 68.2
• C=CC(=O)N1CCN(c2nc(=O)n(-c3c(C)ccnc3C(C)C)c3nc(-c4c(O)cccc4F)c(F)cc23)C(C)C1 (centres undefined) + Cc1c(S(C)(=O)=O)c(-c2cc(F)cc(N3CCN(c4ccc(NS(=O)(=O)c5ccc(NC(CCN6CCC(C(=O)OCCCP(=O)(O)O)CC6)CSc6ccccc6)c(S(=O)(=O)C(F)(F)F)c5)cc4)CC3)c2)c(-c2ccc(Cl)cc2)n1C(C)C = 89.5
• C#Cc1c(F)ccc2cc(O)cc(-c3ncc4c(N5CC6CCC(C5)N6)nc(OCC56CCCN5CC(F)C6)nc4c3F)c12 (centres undefined) + Cc1c(S(C)(=O)=O)c(-c2cc(F)cc(N3CCN(c4ccc(NS(=O)(=O)c5ccc(NC(CCN6CCC(C(=O)OCCCP(=O)(O)O)CC6)CSc6ccccc6)c(S(=O)(=O)C(F)(F)F)c5)cc4)CC3)c2)c(-c2ccc(Cl)cc2)n1C(C)C = 74.1

Qu. Reported viability, T/C for C=C(F)C(=O)N1CCN(c2nc(OCC3CCCN3C)nc3c2CCN(c2cccc4cccc(Cl)c24)C3)CC1CC#N (centres undefined) + Cc1c(S(C)(=O)=O)c(-c2cc(F)cc(N3CCN(c4ccc(NS(=O)(=O)c5ccc(NC(CCN6CCC(C(=O)OCCCP(=O)(O)O)CC6)CSc6ccccc6)c(S(=O)(=O)C(F)(F)F)c5)cc4)CC3)c2)c(-c2ccc(Cl)cc2)n1C(C)C : what is it?
Ans. 50.8

Entry source: PubChem BioAssay AID1963445
